Recorded values, source patent US20200079757A1.

- System: SCNN1A gene expression in BEAS-2B cells
- MEASUREMENT PROTOCOL: TGF-β-induced suppression of dexamethasone-induced SCNN1A gene expression in BEAS-2B cells
- Assay type: cell-based
- CONDITION NOTES: BEAS-2B, agent 10 μM
- Method: The primary assay for the activity of the novel CK1δ/ε inhibitors is the modulation of gene expression in the airway epithelial cell line, the BEAS-2B cells. The assay is conducted under several conditions. […] The threshold cycle (CT) values determined for target genes were normalized against those obtained for 18S ribosomal RNA (18S rRNA), which was included as internal control. […] RNA was then extracted and analyzed by RT-qPCR. […]
RECORDED METRIC: SCNN1A mRNA level, vehicle (no stimulus) (fold control)
Field format: number, assumed fold control, no unit text.

Nc1nccc(-c2c(-c3ccc(F)cc3)ncn2C2CCN(CCCCc3ccccc3)CC2)n1 [SS8-070]    1.63

Query: SCNN1A mRNA level, vehicle (no stimulus) for Nc1nccc(-c2c(-c3ccc(F)cc3)ncn2C23CC4CC(CC(C4)C2)C3)n1 [SS8-122] ?
Reply: 0.86

Query: Same thing, different compound: Cc1ccc(-c2ncn(C3CCCCC3)c2-c2ccnc(N)n2)cc1 [SS8-186]
Reply: 1.36

Query: Entry CCCCN1CCC(n2cnc(-c3ccc(F)cc3)c2-c2ccnc(N)n2)CC1 [SS9-074] please
Reply: 1.22

Query: Quick one: CCCCCCCCN1CCC(n2cnc(-c3ccc(F)cc3)c2-c2ccnc(N)n2)CC1 [SS8-058]
Reply: 2.62

###

- System: Col 1A gene expression in BEAS-2B cells
- MEASUREMENT PROTOCOL: TNFα and TGFβ induced Col 1A gene expression in BEAS-2B cells (RT-qPCR)
- Type: cell-based
- CONDITION NOTES: agent 10 μM
Label t when Col1A mRNA level, vehicle (no stimulus) is at or above 0.9 fold control; otherwise label f.

CNc1nccc(-c2c(-c3ccc(F)cc3)ncn2C2CCCCC2)n1    f
Nc1nccc(-c2c(-c3ccc(F)cc3)ncn2C23CC4CC(CC(C4)C2)C3)n1    t
Cc1ccc(-c2ncn(C3CCCCC3)c2-c2ccnc(N)n2)cc1    f
Cl.Nc1nccc(-c2c(-c3ccc(F)cc3)ncn2C2CCCCC2)n1 [PF670462, reference compound]    f
CCCCN1CCC(n2cnc(-c3ccc(F)cc3)c2-c2ccnc(N)n2)CC1    t

Query: Can `Nc1nccc(-c2c(-c3ccc(F)cc3)ncn2C2CCN(CCCCc3ccccc3)CC2)n1` be said to have Col1A mRNA level, vehicle (no stimulus) at or above 0.9 fold control?
Reply: t

###

- Tested on: Col 1A gene expression in BEAS-2B cells
- MEASUREMENT PROTOCOL: TNFα and TGFβ induced Col 1A gene expression in BEAS-2B cells (RT-qPCR)
- Assay type: cell-based
- CONDITION NOTES: agent 10 μM
RECORDED METRIC: Col1A mRNA level, TGF-β (fold control)
Note: unit fold control is implicit; provide only the numeric part.

Query: Form field: reported Col1A mRNA level, TGF-β of `Cc1ccc(-c2ncn(C3CCCCC3)c2-c2ccnc(N)n2)cc1`
Reply: 3.14

Query: Input `CCCCCCCCN1CCC(n2cnc(-c3ccc(F)cc3)c2-c2ccnc(N)n2)CC1`
Reply: 9.68

Query: Next: `Nc1nccc(-c2c(-c3ccc(F)cc3)ncn2C23CC4CC(CC(C4)C2)C3)n1`
Reply: 8.07

Query: Lookup Cl.Nc1nccc(-c2c(-c3ccc(F)cc3)ncn2C2CCCCC2)n1 [PF670462, reference compound]
Reply: 1.53

Query: Next record, please: `CNc1nccc(-c2c(-c3ccc(F)cc3)ncn2C2CCCCC2)n1`
Reply: 1.09
